tested on: NCI-H460; test: NCI tumour cell line growth inhibition, 48 h
Calls of active or inactive are those of the source. No stated cut-off is given here; in the data, active = GI50 up to about 1.1 µM and inactive = higher.

molecule	target.or.system	GI50
CC(C)(C)c1ccccc1N1C(=O)c2ccc3c4c(ccc(c24)C1=O)N(c1ccccc1C(C)(C)C)C3=O	NCI-H460	> 100 µM (inactive)
O=C(O)[C@H]1[C@@H](C2CCCCC2)O[C@@H](C2CCCCC2)O[C@H]1C(F)(F)F	NCI-H460	19.3 µM (inactive)
O=C(O)C(O)C(O)C(O)C(=O)CO (stereo not given)	NCI-H460	> 100 µM (inactive)
Cc1cc(C)nc(NS(=O)(=O)c2ccc(Nc3c4ccccc4nc4c(C(=O)NNCCO)cccc34)cc2)n1	NCI-H460	15.7 µM (inactive)
O=c1oc2ccccc2n1CCCn1c(=O)oc2ccccc21	NCI-H460	> 100 µM (inactive)
